Assay: WST-1 cytotoxicity assay
Assay type: cell-based, mouse
Details: mouse, NIH-3T3 cells (mouse embryonic fibroblasts)
measured_parameter: IC50 at 48 h

{"compound": "O=CN1CCN(c2ccc(/C=C3/C(=O)Nc4ccc(-c5ccc(C(=O)N6CCOCC6)cc5)cc43)cc2)CC1 [Compound A27]", "IC50 at 48 h": "> 1000 nM"}

input: For CN1CCN(c2ccc(/C=C3/C(=O)Nc4ccc(-c5ccc6cc(O)ccc6c5)cc43)cc2)CC1 [Compound A13] , what is its reported IC50 at 48 h?
output: > 1000 nM

====

Molecular target: FGFR1 (Homo sapiens, UniProt P11362)
Sequence (P11362 22-822): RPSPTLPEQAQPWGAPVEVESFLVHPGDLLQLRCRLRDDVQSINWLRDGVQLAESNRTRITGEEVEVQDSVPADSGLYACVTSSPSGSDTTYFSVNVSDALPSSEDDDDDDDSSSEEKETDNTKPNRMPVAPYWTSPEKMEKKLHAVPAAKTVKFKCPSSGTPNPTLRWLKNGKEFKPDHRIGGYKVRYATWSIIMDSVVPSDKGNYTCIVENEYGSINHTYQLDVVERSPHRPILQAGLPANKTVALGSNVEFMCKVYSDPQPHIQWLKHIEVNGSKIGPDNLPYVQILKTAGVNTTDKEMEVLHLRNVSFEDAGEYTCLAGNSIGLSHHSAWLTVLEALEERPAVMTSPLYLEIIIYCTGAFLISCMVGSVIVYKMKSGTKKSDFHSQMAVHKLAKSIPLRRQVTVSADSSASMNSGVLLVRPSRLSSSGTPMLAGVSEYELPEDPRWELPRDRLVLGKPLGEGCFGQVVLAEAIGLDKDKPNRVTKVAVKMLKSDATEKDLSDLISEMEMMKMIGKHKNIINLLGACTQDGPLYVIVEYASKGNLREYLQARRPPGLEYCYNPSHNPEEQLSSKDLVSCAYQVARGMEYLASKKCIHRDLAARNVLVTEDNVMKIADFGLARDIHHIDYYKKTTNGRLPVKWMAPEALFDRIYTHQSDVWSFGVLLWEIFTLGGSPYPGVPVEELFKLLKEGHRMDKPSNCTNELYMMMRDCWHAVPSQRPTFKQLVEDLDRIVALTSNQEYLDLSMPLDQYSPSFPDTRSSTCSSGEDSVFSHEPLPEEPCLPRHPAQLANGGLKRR
Experiment: Z'-LYTE kinase enzyme inhibition assay, FGFR1
Assay type: biochemical
Details: FGFR1-IC50
Each entry below carries its reported pIC50.
The value called pIC50 is obtained by taking minus log10 of the concentration in mol/L.

Here is how some compounds turned out for pIC50.
{"compound": "O=C1Nc2ccc(-c3ccc(C(=O)N4CCOCC4)cc3)cc2/C1=C\\c1ccc(N2CCOCC2)cc1 [Compound A3]", "pIC50": 6.16}
{"compound": "CN1CCN(C(=O)c2ccc(-c3ccc4c(c3)/C(=C\\c3ccc(N5CCC(O)CC5)cc3)C(=O)N4)cc2)CC1 [Compound A11]", "pIC50": 6.81}
{"compound": "CN1CCN(C(=O)c2ccc(-c3ccc4c(c3)/C(=C\\c3ccc(N5CCN(C=O)CC5)cc3)C(=O)N4)cc2)CC1 [Compound A29]", "pIC50": 5.04}

Query compound follows.
input: For O=C1Nc2ccc(-c3ccc4cc(O)ccc4c3)cc2/C1=C\c1ccc(N2CCOCC2)cc1 [Compound A1] , what is its reported pIC50?
output: 7.70

====

Test system: FGFR1
Test: Z'-LYTE kinase enzyme inhibition assay, FGFR1
Type: biochemical
Details: selectivity index IC50/IC50, lowest IC50 of the compound = 1
Assign Met whenever FGFR1-SI does not fall below 20; assign Not met whenever it does.

{"smiles_data": "CN1CCN(C(=O)c2ccc(-c3ccc4c(c3)/C(=C\\c3ccc(N5CCN(C=O)CC5)cc3)C(=O)N4)cc2)CC1", "target_entity": "FGFR1", "class_label": "Met"}
{"smiles_data": "O=CN1CCN(c2ccc(/C=C3/C(=O)Nc4ccc(-c5ccc(-c6ccc(O)cc6)cc5)cc43)cc2)CC1", "target_entity": "FGFR1", "class_label": "Not met"}
{"smiles_data": "O=C1Nc2ccc(-c3ccc(C(=O)N4CCOCC4)cc3)cc2/C1=C\\c1ccc(N2CCOCC2)cc1", "target_entity": "FGFR1", "class_label": "Not met"}
{"smiles_data": "O=CN1CCN(c2ccc(/C=C3/C(=O)Nc4ccc(-c5ccc(C(=O)N6CCCC6)cc5)cc43)cc2)CC1", "target_entity": "FGFR1", "class_label": "Not met"}
{"smiles_data": "CN1CCN(C(=O)c2ccc(-c3ccc4c(c3)/C(=C\\c3ccc(N5CCN(C)CC5)cc3)C(=O)N4)cc2)CC1", "target_entity": "FGFR1", "class_label": "Met"}

In the following, a different molecule is considered.
input: Reported FGFR1-SI reaches at least 20 for O=CN1CCN(c2ccc(/C=C3/C(=O)Nc4ccc(-c5ccc6cc(O)ccc6c5)cc43)cc2)CC1 ?
output: Not met

====

Biological target: UniProtKB P11362
Test: Z'-LYTE kinase enzyme inhibition assay, FGFR1
Format: biochemical
Details: FGFR1-IC50
Each entry below carries its reported log10(IC50).
Parameter value (number): base-10 log of IC50 in nM.

Here is how some molecules turned out for log10(IC50).
{"molecule": "O=C1Nc2ccc(-c3ccc(C(=O)N4CCCCC4)cc3)cc2/C1=C\\c1ccc(N2CCOCC2)cc1 [Compound A4]", "target_entity": "UniProtKB P11362", "experimental_result": 2.03}
{"molecule": "O=CN1CCN(c2ccc(/C=C3/C(=O)Nc4ccc(-c5ccc6cc(O)ccc6c5)cc43)cc2)CC1 [Compound A25]", "target_entity": "UniProtKB P11362", "experimental_result": 3.60}
{"molecule": "CN1CCN(c2ccc(/C=C3/C(=O)Nc4ccc(-c5ccc(C(=O)N6CCCCC6)cc5)cc43)cc2)CC1 [Compound A16]", "target_entity": "UniProtKB P11362", "experimental_result": 2.41}
{"molecule": "O=C1Nc2ccc(-c3ccc(C(=O)N4CCCC4)cc3)cc2/C1=C\\c1ccc(N2CCOCC2)cc1 [Compound A6]", "target_entity": "UniProtKB P11362", "experimental_result": 1.69}
{"molecule": "CN1CCN(c2ccc(/C=C3/C(=O)Nc4ccc(-c5ccc(C(=O)N6CCOCC6)cc5)cc43)cc2)CC1 [Compound A15]", "target_entity": "UniProtKB P11362", "experimental_result": 1.59}

input: For O=CN1CCN(c2ccc(/C=C3/C(=O)Nc4ccc(-c5ccc(C(=O)N6CCOCC6)cc5)cc43)cc2)CC1 [Compound A27] , what is its reported log10(IC50)?
output: 1.08

input: For O=CN1CCN(c2ccc(/C=C3/C(=O)Nc4ccc(-c5ccc(C(=O)N6CCCCC6)cc5)cc43)cc2)CC1 [Compound A28] , what is its reported log10(IC50)?
output: 1.89

input: For CN1CCN(c2ccc(/C=C3/C(=O)Nc4ccc(-c5ccc6cc(O)ccc6c5)cc43)cc2)CC1 [Compound A13] , what is its reported log10(IC50)?
output: 0.85

input: For O=CN1CCN(c2ccc(/C=C3/C(=O)Nc4ccc(-c5ccc(C(=O)N6CCCC6)cc5)cc43)cc2)CC1 [Compound A30] , what is its reported log10(IC50)?
output: 1.83

input: For CN1CCN(c2ccc(/C=C3/C(=O)Nc4ccc(-c5ccc(C(=O)N6CCCC6)cc5)cc43)cc2)CC1 [Compound A18] , what is its reported log10(IC50)?
output: 1.69

input: For O=C1Nc2ccc(-c3ccc(C(=O)N4CCCC4)cc3)cc2/C1=C\c1ccc(N2CCC(O)CC2)cc1 [Compound A12] , what is its reported log10(IC50)?
output: 2.81
